Hey, just so you know, these numbers are from patent US9328122B2.

- Tested on: NB4 (acute promyelocytic leukemia) cells
- assay details: MTT cell growth inhibition, leukemia cells
- Format: cell-based
- assay context: Homo sapiens; NB4, 72 h, MTT; read-out: IC90
value kind: IC90 (µg/mL)

[a] COc1ccc2cc1Oc1ccc(cc1)C[C@H]1c3cc(c(OC)cc3CCN1C)Oc1c(OCc3cccc(F)c3F)c(OC)cc3c1[C@H](C2)N(C)CC3
[b] COc1ccc2cc1Oc1ccc(cc1)C[C@H]1c3cc(c(OC)cc3CCN1C)Oc1c(OS(=O)(=O)c3ccc(C)cc3)c(OC)cc3c1[C@H](C2)N(C)CC3
[c] COc1ccc2cc1Oc1ccc(cc1)C[C@H]1c3cc(c(OC)cc3CCN1C)Oc1c(OC(=O)C3CC3)c(OC)cc3c1[C@H](C2)N(C)CC3
Exam item: // ascending sort on recorded IC90 # answer = labels listed in requested order
Marked response: b, a, c
